assay: Pharmacokinetics of apixaban after oral and intravenous administration; plasma concentrations by UPLC-MS, two-compartment model; assay type: in vivo; settings: plasma, iv, […], horses, single IV dose […]; read-out: VC (apparent volume of distribution for central compartment), mean
Reported Property: Vd

Req: // Vd lookup, key: COc1ccc(-n2nc(C(N)=O)c3c2C(=O)N(c2ccc(N4CCCCC4=O)cc2)CC3)cc1 [apixaban]
Resp: 0.0201 L/kg

---

Assay: Pharmacokinetics of apixaban after oral and intravenous administration; plasma concentrations by UPLC-MS, two-compartment model
Format: in vivo
Conditions: plasma, iv, […], horses, single IV dose […]; read-out: VSS (volume of distribution at steady-state), geometric mean
Text: The first and last treatments for each horse were IV administration of drug or placebo (Figure 1). […] Investigators were blinded to each treatment until the conclusion of the study. […] Secondary parameters calculated include distribution (α) and elimination (β) half-lives (T½), microdistribution rate constants, area-under-the-curve (AUC), apparent volume of distribution at steady-state (VSS), systemic clearance (CL), and mean residence time (MRT).
Reported Property: Vd (L/kg)
Give a bare numeral; the unit L/kg is implied.

Req: // Vd lookup, key: COc1ccc(-n2nc(C(N)=O)c3c2C(=O)N(c2ccc(N4CCCCC4=O)cc2)CC3)cc1
Resp: 0.0718

---

test: Pharmacokinetics of apixaban after oral and intravenous administration; plasma concentrations by UPLC-MS, two-compartment model; format: in vivo; details: horse, plasma, iv, […], horses, IV administration; read-out: volume of distribution (VDSS)
Reported Property: Vd

Req: // Vd lookup, key: COc1ccc(-n2nc(C(N)=O)c3c2C(=O)N(c2ccc(N4CCCCC4=O)cc2)CC3)cc1
Resp: 0.0933 L/kg

---

experiment: Protein binding of apixaban in spiked platelet-poor plasma (ultrafiltration, UPLC-MS); format: in vitro ADME, horse; conditions: horse PPP spiked at 460 ng/mL (1,000 nM), read-out: mean percentage of protein binding (converted)
Reported Property: fraction unbound at 30 min, 1000 nM
Hey, just send me the number, nothing else.

Req: // fraction unbound at 30 min, 1000 nM lookup, key: COc1ccc(-n2nc(C(N)=O)c3c2C(=O)N(c2ccc(N4CCCCC4=O)cc2)CC3)cc1
Resp: 0.015

---

assay: Pharmacokinetics of apixaban after oral and intravenous administration; plasma concentrations by UPLC-MS, two-compartment model; format: in vivo; conditions: plasma, iv, […], horses, single IV dose […]; read-out: t½β (half-life of the elimination phase), geometric mean (converted)
Reported Property: half-life (h)
Give a bare numeral; the unit h is implied.

Req: // half-life lookup, key: COc1ccc(-n2nc(C(N)=O)c3c2C(=O)N(c2ccc(N4CCCCC4=O)cc2)CC3)cc1
Resp: 1.27

---

assay: Protein binding of apixaban in spiked platelet-poor plasma (ultrafiltration, UPLC-MS); type: in vitro ADME, horse; conditions: horse PPP spiked at 92 ng/mL (200 nM), read-out: mean percentage of protein binding (converted)
Reported Property: fraction unbound at 30 min, 200 nM
Hey, just send me the number, nothing else.

Req: // fraction unbound at 30 min, 200 nM lookup, key: COc1ccc(-n2nc(C(N)=O)c3c2C(=O)N(c2ccc(N4CCCCC4=O)cc2)CC3)cc1
Resp: 0.076

---

experiment: Pharmacokinetics of apixaban after oral and intravenous administration; plasma concentrations by UPLC-MS, two-compartment model; format: in vivo; conditions: horse, plasma, iv, […], horses, IV administration; read-out: rate of clearance (converted)
Reported Property: clearance (mL/min/kg)
Give a bare numeral; the unit mL/min/kg is implied.

Req: // clearance lookup, key: COc1ccc(-n2nc(C(N)=O)c3c2C(=O)N(c2ccc(N4CCCCC4=O)cc2)CC3)cc1 [apixaban]
Resp: 2.53

---

assay: Protein binding of apixaban in spiked platelet-poor plasma (ultrafiltration, UPLC-MS); type: in vitro ADME, horse; details: horse plasma, range as given in abstract
Reported Property: fraction unbound at 30 min

Req: // fraction unbound at 30 min lookup, key: COc1ccc(-n2nc(C(N)=O)c3c2C(=O)N(c2ccc(N4CCCCC4=O)cc2)CC3)cc1
Resp: 0.01 to 0.08
